# Tested on: Alopecurus myosuroides (ALOMY)
# Test method notes: Post-emergence herbicidal activity, glasshouse pot test
# Type: in vivo
# Measurement conditions: Alopecurus myosuroides, 312 h, rate 250 g/ha, evaluated after 13 days, glasshouse, read-out: Post-emergence activity ALOMY (100=total damage to plant; 0=no damage to plant)
Param label: returns Fulfilled when pest or weed control at 250 g/ha < 40%, returns Not fulfilled otherwise, including exact equality.

# Compound, Answer label
data = [
    ("CCc1ccc(Oc2ccccc2F)cc1C1=C(O)C(C)(C)OC(C)(C)C1=O [Example A-13]", "Fulfilled"),
    ("CCc1ccc(Oc2ccc(Cl)cc2)cc1C1=C(O)C(C)(C)OC(C)(C)C1=O [Example A-4]", "Not fulfilled"),
    ("CCc1ccc(Oc2ccc(Br)c(Cl)c2)cc1C1=C(O)CC(C)(C)CC1=O [Example A-258]", "Not fulfilled"),
    ("CCc1ccc(Oc2ncc(C(F)(F)F)cc2F)cc1C1=C(O)CC2(CCOCC2)CC1=O [Example A-273]", "Not fulfilled"),
    ("CC1(C)OC(C)(C)C(O)=C(c2cc(Oc3ccc(Cl)cc3)ccc2OC(F)(F)F)C1=O [Example A-302]", "Not fulfilled"),
    ("CCc1ccc(Oc2ccc(F)cc2[N+](=O)[O-])cc1C1=C(O)C(C)(C)OC(C)(C)C1=O [Example A-230]", "Fulfilled"),
    ("CCc1ccc(Oc2ncc(Cl)cc2[N+](=O)[O-])cc1C1=C(O)C(C)(C)OC(C)(C)C1=O [Example A-162]", "Not fulfilled"),
    ("CCc1ccc(Oc2cnc3ccc(Br)cc3n2)cc1C1=C(O)C(C)(C)OC(C)(C)C1=O [Example A-104]", "Not fulfilled"),
    ("CCc1ccc(Oc2ccc(C(F)(F)F)cc2)cc1C1=C(O)C(C)(C)OC(C)(C)C1=O [Example A-97]", "Not fulfilled"),
    ("CCc1ccc(Oc2cncc(Cl)n2)cc1C1=C(O)C(C)(C)OC(C)(C)C1=O [Example A-102]", "Fulfilled"),
    ("CCc1ccc(Oc2nc3ccccc3s2)cc1C1=C(O)CC(C)(C)CC1=O [Example A-286]", "Not fulfilled"),
    ("CCc1ccc(Oc2ncc(C(F)(F)F)cc2Cl)cc1C1=C(O)[C@@H]2CC[C@](C)(C1=O)C2(C)C [Example A-317]", "Not fulfilled"),
    ("CCc1ccc(Oc2ccc(Cl)c(F)c2)cc1C1=C(O)C(C)(C)CCC1=O [Example A-52]", "Fulfilled"),
    ("CCc1ccc(Oc2ccc(F)cc2)cc1C1=C(O)C(C)(C)OC(C)(C)C1=O [Example A-22]", "Fulfilled"),
    ("CCc1ccc(Oc2nc3ccc(OC)cc3s2)cc1C1=C(O)CC2(CCOCC2)CC1=O [Example A-264]", "Not fulfilled"),
]

====

# Tested on: Alopecurus myosuroides (ALOMY)
# Test method notes: Pre-emergence herbicidal activity, glasshouse pot test
# Format: in vivo
# Measurement conditions: Alopecurus myosuroides, 312 h; Rate 250 g/ha; pre-emergence spray; evaluated after 13 days; read-out: Pre-emergence activity ALOMY (100=total damage to plant; 0=no damage to plant)
We begin with a simple list: items and their reported pest or weed control at 250 g/ha.

# Cpd smiles, pest or weed control at 250 g/ha
measured = [
    ("CCc1ccc(Oc2ccc([N+](=O)[O-])cn2)cc1C1=C(O)C(C)(C)OC(C)(C)C1=O", "10%"),
    ("CCc1ccc(Oc2ccc(C#N)c(Cl)c2)cc1C1=C(O)[C@H]2CC[C@H](C2)C1=O", "80%"),
    ("CCc1ccc(Oc2ccc(C#N)c(F)c2)cc1C1=C(O)C(C)(C)OC(C)(C)C1=O", "0%"),
    ("CCc1ccc(Oc2ccc(Br)cc2)cc1C1=C(O)CCC(C)(C)C1=O", "30%"),
    ("CCc1ccc(Oc2ccc(I)cn2)cc1C1=C(O)C(C)(C)OC(C)(C)C1=O", "70%"),
    ("CCc1ccc(Oc2ccc(Cl)cc2Cl)cc1C1=C(O)CC2(CCOCC2)CC1=O", "30%"),
    ("CCc1ccc(Oc2ccc(C(F)(F)F)c(C#N)c2)cc1C1=C(O)CC2(CCOCC2)CC1=O", "50%"),
    ("CCc1ccc(Oc2ccc(F)cc2Cl)cc1C1=C(O)C(C)(C)OC(C)(C)C1=O", "20%"),
    ("CCc1ccc(Oc2nc3ccc(Cl)cc3s2)cc1C1=C(O)CC2(CCOCC2)CC1=O", "80%"),
    ("CCc1ccc(Oc2ccc(OC(F)(F)F)cc2)cc1C1=C(O)C(C)(C)OC(C)(C)C1=O", "70%"),
    ("CCc1ccc(Oc2ccc3cc(Br)ccc3n2)cc1C1=C(O)C(C)(C)OC(C)(C)C1=O", "50%"),
    ("CCc1ccc(Oc2cnc3ccc(Br)cc3n2)cc1C1=C(O)CC2(CCOCC2)CC1=O", "80%"),
    ("CCc1ccc(Oc2ncc(C(F)(F)F)cc2F)cc1C1=C(O)CC(C)(C)CC1=O", "90%"),
    ("CCc1ccc(Oc2ccc(Br)cc2F)cc1C1=C(O)CC2(CCOCC2)CC1=O", "70%"),
    ("CCc1ccc(Oc2nc(OC)cc(OC)n2)cc1C1=C(O)C(C)(C)OC(C)(C)C1=O", "0%"),
    ("CCc1ccc(Oc2ccc(C#N)c(Cl)c2)cc1C1=C(O)[C@@H]2CC[C@](C)(C1=O)C2(C)C", "80%"),
]
